In this section we review reported melting point values for a set of molecules.

Guide cases for melting point, answers given:
COc1ccc(S)c(-n2c(=O)[nH]cc(C(=O)O)c2=O)c1
277 to 278 °C
CN(C)CCNc1nc(C(=O)Nc2nc3ccc(C#N)cc3s2)cs1
201 to 203 °C
COc1ccc(-c2cc(Cl)c3ccc(OC)cc3n2)cc1
99 to 101 °C
CN(c1cccc2cc(C3=NCC(CC(N)=O)S3)[nH]c12)S(=O)(=O)c1nccs1 (stereo unspecified)
216 to 218 °C
O=c1c2ccc(Cl)cc2nc2n1CS(=O)(=O)N2
> 300 °C

Problem: Supply recorded melting point for CS(=O)(=O)N1CC(=O)c2ccsc2C1 here.
Result: 120 °C

Problem: Item c1ccc2c(c1)CCc1c-2n[nH]c1-c1ccncc1 : provide melting point
Result: 229 °C

Problem: In one line, give reported melting point of the entry Brc1cccc2c1ccc1ccccc12 .
Result: 90 to 91 °C

Problem: Provide one value: measured melting point of [N-]=[N+]=NCC(=O)Nc1ccccc1
Result: 83 °C

Problem: Return value of melting point for input CNc1ccc2c(c1)Sc1cc(NC)ccc1N2C(C)=O , no commentary.
Result: 137 °C

Problem: Could you please provide reported melting point for COc1cc2c(cc1S(=O)(=O)c1ccc(Br)cc1)[C@@H](N1CCCC1=O)[C@H](O)C(C)(C)O2 (relative stereo) ? Thanks!
Result: 281 to 282 °C

Problem: Return the recorded melting point value; entry: CC1C(=O)N(c2ccccc2)C(=S)N1Cc1ccc(Oc2ccccc2)cc1 (stereo unspecified)
Result: 122 °C

Data origin: a melting point compilation (Tetko et al.; mined from patent text by program, amines drawn as free bases though some values may be those of a salt)
